- assay: Displacement of [3H]nisoxetine from Sprague-Dawley rat brain NET after 180 mins by liquid scintillation counting method
outcomeMeasure: pKi
# pKi = -log10(concentration in molar units)

Return value of pKi for input NCCN1C2CCC1CC(OC(c1ccc(F)cc1)c1ccc(F)cc1)C2 (stereo not drawn) , no commentary.
5.85

Query pKi for CC(C)[C@@H](N)CN1C2CCC1CC(OC(c1ccc(F)cc1)c1ccc(F)cc1)C2 (stereo partly drawn)
5.67

Please list pKi recorded for the molecule Fc1ccc(C(OC2CC3CCC(C2)N3CC2CC2)c2ccc(F)cc2)cc1 (stereo not drawn)
5.79

Name the recorded pKi of the item CCOC(=O)[C@@H]1C2CCC(C[C@@H]1OC(c1ccc(F)cc1)c1ccc(F)cc1)N2CCc1c[nH]c2ccccc12 (mixture of isomers) in your answer.
5.84

Return the recorded pKi value; entry: Cc1ccc(-c2cc(C3C(c4ccc(Cl)cc4)CC4CCC3N4C)on2)cc1 (stereo not drawn)
5.93

Give a short answer stating reported pKi for CN1C2CCC1[C@@H](c1cc(-c3ccccc3)no1)C(OC(c1ccc(F)cc1)c1ccc(F)cc1)C2 (single isomer, unassigned) .
6.38

Specify measured pKi for CCOC(=O)[C@@H]1C2CCC(C[C@@H]1OC(c1ccc(F)cc1)c1ccc(F)cc1)N2CC1CC1 (mixture of isomers) .
6.26

For the molecule Fc1ccc(C(NC2CC3CCC(C2)N3CCN2CCCCC2)c2ccc(F)cc2)cc1 (stereo not drawn) , report pKi.
6.21
